- Tested on: decerebrate rigidity induced by radio frequency lesions of rat brains
- experiment description: Decerebrate rigidity remission action (radio frequency lesion, method of Ono et al)
- Type: in vivo, Wistar male rat
- run parameters: iv, intravenously administered at 3 mg/kg, tension before the administration = 100%
Where a name gives a salt, the structure may show the parent alone.
The class of a record is decided solely by its measured inhibition in vivo at 3 mg/kg; consult low bracket (below 40%), middle bracket (40% to below 50%), high bracket (50% or more)

Observe how each entry below is paired with its result.
[
  {
    "molecule": "COc1cccc(-c2cc(C(=O)C(C)CN3CCCC3)on2)c1 (centres unmarked)",
    "label": "low bracket"
  },
  {
    "molecule": "CCC(CN1CCCCC1)C(=O)c1cc(-c2ccccc2)no1 (centres unmarked)",
    "label": "high bracket"
  },
  {
    "molecule": "CCC(CN1CCCC1)C(=O)c1cc(-c2ccccc2)no1 (centres unmarked) [Example 28, hydrochloride]",
    "label": "high bracket"
  },
  {
    "molecule": "CCC(CN1CCCC1)C(=O)c1cc(-c2ccccc2)on1 (centres unmarked)",
    "label": "high bracket"
  }
]

Could you tell me which band CCc1ccc(C(=O)C(C)CN2CCCCC2)cc1 (centres unmarked) [Eperisone hydrochloride, eperisone hydrochloride, reference compound] belongs to?
high bracket

Can you handle CC(CN1CCCCC1)C(=O)c1cc(Cc2ccccc2)no1.Cl (centres unmarked) [Example 21, hydrochloride] next?
middle bracket
